Recorded values, source ChEMBL document CHEMBL1201861.

Recorded IC50 for the following compounds
System: SK-MEL-30;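 further: growth inhibition of SK-MEL-30 cells, determined with a cell viability assay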
Assay: cells
Type: functional, cell-based
Details: Homo sapiens
Description: SANGER: Inhibition of human SK-MEL-30 cell growth in a cell viability assay.

[
  {
    "Compound": "Cn1cc(C2=C(c3ccc(Cl)cc3Cl)C(=O)NC2=O)c2ccccc21 [SB-216763]",
    "System": "SK-MEL-30",
    "IC50": "> 10 µM"
  },
  {
    "Compound": "Cc1ccc(Nc2nccc(N(C)c3ccc4c(C)n(C)nc4c3)n2)cc1S(N)(=O)=O [PAZOPANIB]",
    "System": "SK-MEL-30",
    "IC50": "> 8 µM"
  },
  {
    "Compound": "COc1cc(F)c(F)c(Nc2ccc(I)cc2F)c1NS(=O)(=O)C1(CC(O)CO)CC1 (centres undefined)",
    "System": "SK-MEL-30",
    "IC50": "> 5 µM"
  },
  {
    "Compound": "CN(c1ncccc1CNc1nc(Nc2ccc3c(c2)CC(=O)N3)ncc1C(F)(F)F)S(C)(=O)=O [PF-00562271]",
    "System": "SK-MEL-30",
    "IC50": "> 2.56 µM"
  }
]

* * *

Tested on: HT-1376
Assay: cells
Type: functional, cell-based, Homo sapiens
Conditions: ht-1376
Description: SANGER: Inhibition of human HT-1376 cell growth in a cell viability assay.
pIC50: −log10 of the molar value.

[
  {
    "Structure smiles": "Cc1cc([C@@H](C)Nc2ccccc2C(=O)O)c2nc(N3CCOCC3)cc(=O)n2c1",
    "System": "HT-1376",
    "pIC50": "< 5.29"
  }
]

* * *

System: SK-NEP-1;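 further: growth inhibition of human SK-NEP-1 cells, read out by a cell viability assay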
Assay: cells
Assay type: functional, cell-based
Settings: Homo sapiens
Description: SANGER: Inhibition of human SK-NEP-1 cell growth in a cell viability assay.
Observed property: IC50

[
  {
    "Compound": "COc1cc(F)c(F)c(Nc2ccc(I)cc2F)c1NS(=O)(=O)C1(CC(O)CO)CC1 (configuration not stated)",
    "Data value": "> 5 µM"
  },
  {
    "Compound": "CC1=C2C[C@H]3[C@@H](CC=C4C[C@@H](O)CC[C@@]43C)[C@@H]2CC[C@]12O[C@@H]1C[C@H](C)CN[C@H]1[C@H]2C",
    "Data value": "> 16 µM"
  },
  {
    "Compound": "CNC(=O)c1cc(Oc2ccc(NC(=O)Nc3ccc(Cl)c(C(F)(F)F)c3)cc2)ccn1",
    "Data value": "> 4 µM"
  },
  {
    "Compound": "COc1ccc(C2=N[C@@H](c3ccc(Cl)cc3)[C@@H](c3ccc(Cl)cc3)N2C(=O)N2CCNC(=O)C2)c(OC(C)C)c1",
    "Data value": "> 8 µM"
  },
  {
    "Compound": "O=C(c1cc(Cc2n[nH]c(=O)c3ccccc23)ccc1F)N1CCN(C(=O)C2CC2)CC1",
    "Data value": "> 5 µM"
  },
  {
    "Compound": "CCOc1nc(NC(=O)Cc2cc(OC)ccc2OC)cc(N)c1C#N",
    "Data value": "> 10 µM"
  },
  {
    "Compound": "Cc1cc(Nc2cc(N3CCN(C)CC3)nc(Sc3ccc(NC(=O)C4CC4)cc3)n2)n[nH]1",
    "Data value": "1.21 µM"
  }
]

* * *

Recorded pIC50 for the following molecules
Tested on: SJSA-1;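 further: growth inhibition of human SJSA-1 cells, read out through a cell viability measurement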
Test: cells
Assay type: functional, cell-based, Homo sapiens
Conditions: Homo sapiens, SJSA-1
Description: SANGER: Inhibition of human SJSA-1 cell growth in a cell viability assay.
pIC50: −log10 of the molar value.
Observed property: pIC50

[
  {
    "Molecule": "Cn1cc(C2=C(c3ccc(Cl)cc3Cl)C(=O)NC2=O)c2ccccc21 [SB-216763]",
    "Data value": "< 5.00"
  },
  {
    "Molecule": "CN(Cc1cnc2nc(N)nc(N)c2n1)c1ccc(C(=O)N[C@@H](CCC(=O)O)C(=O)O)cc1 [METHOTREXATE]",
    "Data value": "< 6.70"
  },
  {
    "Molecule": "CC(=O)O[C@@]12CO[C@@H]1C[C@H](O)[C@@]1(C)C(=O)[C@H](O)C3=C(C)[C@@H](OC(=O)[C@H](O)[C@@H](NC(=O)OC(C)(C)C)c4ccccc4)C[C@@](O)([C@@H](OC(=O)c4ccccc4)[C@H]21)C3(C)C [DOCETAXEL]",
    "Data value": 9.21
  },
  {
    "Molecule": "O=C(c1cc(Cc2n[nH]c(=O)c3ccccc23)ccc1F)N1CCN(C(=O)C2CC2)CC1 [OLAPARIB]",
    "Data value": "< 5.30"
  },
  {
    "Molecule": "CNC(=O)c1cc(Oc2ccc(NC(=O)Nc3ccc(Cl)c(C(F)(F)F)c3)cc2)ccn1 [SORAFENIB]",
    "Data value": "< 5.40"
  }
]

* * *

Test system: LNCaP-Clone-FGC
Test: cells
Type: functional, cell-based, Homo sapiens
Details: lncap-clone-fgc
Description: SANGER: Inhibition of human LNCaP-Clone-FGC cell growth in a cell viability assay.
pIC50: −log10 of the molar value.
Observed property: pIC50

[
  {
    "Structure smiles": "Cc1cc([C@@H](C)Nc2ccccc2C(=O)O)c2nc(N3CCOCC3)cc(=O)n2c1",
    "System": "LNCaP-Clone-FGC",
    "Data value": 5.62
  }
]

* * *

Test system: MDA-MB-134-VI
Experiment: cells
Type: functional, cell-based
Conditions: Homo sapiens
Description: SANGER: Inhibition of human MDA-MB-134-VI cell growth in a cell viability assay.
Observed property: IC50

[
  {
    "Molecule": "CCC1=C[C@@H]2CN(C1)Cc1c([nH]c3ccccc13)[C@@](C(=O)OC)(c1cc3c(cc1OC)N(C)[C@H]1[C@@](O)(C(=O)OC)[C@H](OC(C)=O)[C@]4(CC)C=CCN5CC[C@]31[C@@H]54)C2 [VINORELBINE]",
    "System": "MDA-MB-134-VI",
    "Observed property": "IC50",
    "Data value": "> 0.064 µM"
  },
  {
    "Molecule": "O=C(/C=C/c1ccccc1)NC(NC(=S)Nc1cccc2cccnc12)C(Cl)(Cl)Cl (stereo not drawn) [SALUBRINAL]",
    "System": "MDA-MB-134-VI",
    "Observed property": "IC50",
    "Data value": "> 16 µM"
  },
  {
    "Molecule": "Cc1ccc(Nc2nccc(N(C)c3ccc4c(C)n(C)nc4c3)n2)cc1S(N)(=O)=O [PAZOPANIB]",
    "System": "MDA-MB-134-VI",
    "Observed property": "IC50",
    "Data value": "> 8 µM"
  }
]

* * *

Tested on: SU-DHL-1
Assay: SANGER: Inhibition of human SU-DHL-1 cell growth in a cell viability assay.
Type: functional, cell-based
pIC50: −log10 of the molar value.
Recorded pIC50 for the following compounds
Observed property: pIC50

[
  {
    "Structure smiles": "CCC(=O)N1CCN(c2ccc(-n3c(=O)ccc4cnc5ccc(-c6cnc7ccccc7c6)cc5c43)cc2C(F)(F)F)CC1",
    "Observed property": "pIC50",
    "Cmp": "=",
    "Data value": 6.19
  },
  {
    "Structure smiles": "Cc1cnc(-c2cnc(NCCNc3ccc(C#N)cn3)nc2-c2ccc(Cl)cc2Cl)[nH]1",
    "Observed property": "pIC50",
    "Cmp": "<",
    "Data value": 5.59
  },
  {
    "Structure smiles": "CCC1=C[C@@H]2CN(C1)Cc1c([nH]c3ccccc13)[C@@](C(=O)OC)(c1cc3c(cc1OC)N(C)[C@H]1[C@@](O)(C(=O)OC)[C@H](OC(C)=O)[C@]4(CC)C=CCN5CC[C@]31[C@@H]54)C2",
    "Observed property": "pIC50",
    "Cmp": "=",
    "Data value": 8.02
  },
  {
    "Structure smiles": "CO[C@H]1C[C@@H]2CC[C@@H](C)[C@@](O)(O2)C(=O)C(=O)N2CCCC[C@H]2C(=O)O[C@H]([C@H](C)C[C@@H]2CC[C@@H](O)[C@H](OC)C2)CC(=O)[C@H](C)/C=C(\\C)[C@@H](O)[C@@H](OC)C(=O)[C@H](C)C[C@H](C)/C=C/C=C/C=C/1C",
    "Observed property": "pIC50",
    "Cmp": "<",
    "Data value": 7.00
  },
  {
    "Structure smiles": "C[C@]1(O)C[C@@H](c2nc(-c3ccc4ccc(-c5ccccc5)nc4c3)c3c(N)nccn32)C1",
    "Observed property": "pIC50",
    "Cmp": "<",
    "Data value": 5.59
  }
]

* * *

Tested on: SW1783
Test: cells
Format: functional, cell-based
Conditions: Homo sapiens
Description: SANGER: Inhibition of human SW1783 cell growth in a cell viability assay.
pIC50: −log10 of the molar value.
Recorded pIC50 for the following molecules

[
  {
    "Molecule": "O=C(c1cc(Cc2n[nH]c(=O)c3ccccc23)ccc1F)N1CCN(C(=O)C2CC2)CC1 [OLAPARIB]",
    "System": "SW1783",
    "pIC50": "< 5.30"
  },
  {
    "Molecule": "CCC1=C[C@@H]2CN(C1)Cc1c([nH]c3ccccc13)[C@@](C(=O)OC)(c1cc3c(cc1OC)N(C)[C@H]1[C@@](O)(C(=O)OC)[C@H](OC(C)=O)[C@]4(CC)C=CCN5CC[C@]31[C@@H]54)C2 [VINORELBINE]",
    "System": "SW1783",
    "pIC50": "< 7.19"
  },
  {
    "Molecule": "COC(=O)CNC(=O)C(=O)OC",
    "System": "SW1783",
    "pIC50": 3.81
  }
]
